- MEASUREMENT_TARGET: TgCDPK1 (Toxoplasma gondii, UniProt Q9BJF5)
- Sequence (Q9BJF5 1-507): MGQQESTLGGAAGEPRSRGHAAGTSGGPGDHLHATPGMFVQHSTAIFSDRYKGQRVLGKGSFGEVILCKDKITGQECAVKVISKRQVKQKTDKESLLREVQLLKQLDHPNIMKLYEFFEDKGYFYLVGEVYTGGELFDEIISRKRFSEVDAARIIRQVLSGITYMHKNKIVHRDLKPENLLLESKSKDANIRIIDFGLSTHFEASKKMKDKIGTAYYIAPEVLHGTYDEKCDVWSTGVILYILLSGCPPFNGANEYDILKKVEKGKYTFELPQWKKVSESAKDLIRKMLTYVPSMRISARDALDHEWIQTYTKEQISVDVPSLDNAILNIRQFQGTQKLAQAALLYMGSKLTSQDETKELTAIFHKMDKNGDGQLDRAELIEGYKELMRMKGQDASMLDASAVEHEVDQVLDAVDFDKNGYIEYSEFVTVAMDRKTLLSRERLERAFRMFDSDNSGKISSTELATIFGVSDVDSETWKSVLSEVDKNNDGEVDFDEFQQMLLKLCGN
- EXPERIMENT: biochemical
- RECORDED_CONDITIONS: read-out: TgCDPK1 IC50
Reported log10(IC50) values for a set of compounds
Please be aware that the numbers have been log10-transformed from IC50 in nM.

As a guide, the following entries are already answered.
> print(dat)
                                   compound                        measurement.target  test.result
1  CC(C)(C)n1nc(-c2cnc3ccccc3c2)c(C(N)=O)c1N [Compound 38]  TgCDPK1 (Toxoplasma gondii, UniProt Q9BJF5)         0.78
2  CC(C)(C)n1nc(-c2ccc3oc(=O)ccc3c2)c(C(N)=O)c1N [Compound 34]  TgCDPK1 (Toxoplasma gondii, UniProt Q9BJF5)         1.51
3  CCCOc1ccc2cc(-c3nn(C(C)(C)C)c(N)c3C(N)=O)ccc2c1 [Compound 26]  TgCDPK1 (Toxoplasma gondii, UniProt Q9BJF5)         0.85
4  NC(=O)c1c(-c2ccc3ccccc3c2)nn(CC2CCCCC2)c1N [Compound 16]  TgCDPK1 (Toxoplasma gondii, UniProt Q9BJF5)         1.77
5  CCn1nc(-c2ccc3ccccc3c2)c(C(N)=O)c1N [Compound 12]  TgCDPK1 (Toxoplasma gondii, UniProt Q9BJF5)         0.90

Reported log10(IC50) of CCOc1ccc2cc(-c3nn(CC4CCN(C)CC4)c(N)c3C(N)=O)ccc2c1 [Compound 8] : 1.04

---

- MEASUREMENT_TARGET: CpCDPK1 (Cryptosporidium parvum (strain Iowa II), UniProt A3FQ16)
- Sequence (A3FQ16 1-538): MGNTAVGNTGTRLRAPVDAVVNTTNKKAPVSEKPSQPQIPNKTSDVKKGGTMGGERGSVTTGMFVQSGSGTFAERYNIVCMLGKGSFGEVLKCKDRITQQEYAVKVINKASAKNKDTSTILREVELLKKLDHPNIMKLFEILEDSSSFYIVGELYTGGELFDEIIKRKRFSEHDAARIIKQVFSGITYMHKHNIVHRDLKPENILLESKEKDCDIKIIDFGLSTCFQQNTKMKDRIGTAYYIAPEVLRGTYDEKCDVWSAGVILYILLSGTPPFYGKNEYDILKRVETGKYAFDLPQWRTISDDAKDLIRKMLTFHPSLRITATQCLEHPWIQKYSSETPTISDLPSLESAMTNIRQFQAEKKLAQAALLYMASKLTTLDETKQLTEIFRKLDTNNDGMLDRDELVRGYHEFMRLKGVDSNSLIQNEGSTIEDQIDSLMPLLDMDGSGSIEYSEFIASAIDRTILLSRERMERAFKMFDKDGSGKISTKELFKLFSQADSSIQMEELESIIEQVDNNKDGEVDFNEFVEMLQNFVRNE
- EXPERIMENT: biochemical
- RECORDED_CONDITIONS: Table 1; KinaseGlo, Syntide 2 peptide substrate; read-out: CpCDPK1 IC50
MEASURED_ATTRIBUTE: pIC50
Answer as the number alone; pIC50 is minus log10 of concentration in mol/L.

> print(dat)
                                   compound  measured.attribute  test.result
1  CC(C)(C)n1nc(-c2ccc3nc(OC4CC4)ccc3c2)c(C(N)=O)c1N               pIC50         8.52
2  CC(C)(CO)Cn1nc(-c2ccc3nc(OC4CCC4)ccc3c2)c(C(N)=O)c1N               pIC50         8.30
3  NC(=O)c1c(-c2ccc3ccccc3c2)nn(CCN2CCOCC2)c1N               pIC50         7.74
4  CCOc1ccc2cc(-c3nn(C(C)C(C)(C)O)c(N)c3C(N)=O)ccc2n1 (stereo not drawn)               pIC50         7.74
5  CCOc1ccc2cc(-c3nn(C4CCOC4)c(N)c3C(N)=O)cnc2c1 (stereo not drawn)               pIC50         8.52

pIC50 value, target or system CpCDPK1 (Cryptosporidium parvum (strain Iowa II), UniProt A3FQ16), for `CC(C)Cn1nc(-c2ccc3ccccc3c2)c(C(N)=O)c1N` : 7.80

pIC50 value, target or system CpCDPK1 (Cryptosporidium parvum (strain Iowa II), UniProt A3FQ16), for `CCOc1ccc2cc(-c3nn(CCOC)c(N)c3C(=O)NCCOC)cnc2c1` : 6.40

pIC50 value, target or system CpCDPK1 (Cryptosporidium parvum (strain Iowa II), UniProt A3FQ16), for `CCc1ccc2cc(-c3nn(C(C)(C)C)c(N)c3C(N)=O)cnc2c1` : 7.07

pIC50 value, target or system CpCDPK1 (Cryptosporidium parvum (strain Iowa II), UniProt A3FQ16), for `CCOc1ccc2cc(-c3nn(C(C)C)c(N)c3C(N)=O)ccc2n1` : 8.70
